Target: T1, corticotropin-releasing hormone (CRH) peptide (human and mouse (same sequence), not fully specified)
T1 peptide: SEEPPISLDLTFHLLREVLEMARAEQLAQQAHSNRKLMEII
Assay: cell-based or functional assay
MEASUREMENT_KIND: mCrhr1 Luciferase Reporter Assay IC50 (nM)
Record the value in nM, omitting the unit from your answer.

Ask: Please look up its mCrhr1 Luciferase Reporter Assay IC50: PR302043 (antibody, human IgG1, kappa, V domains shown, humanized variant of PR301777) VH: EVQLVESGGGLVQPGGSLKLSCAASGFTFSNYWMNWVRQASGKGLEWVGEIRLKSNNYATHYAESVKGRFTISRDDSKNTAYLQMNSLKTEDTAVYYCTRGTLVYWGQGTLVTVSS VL: DIVLTQSPDSLAVSLGERATINCRASQSVSTSTYNYMHWFQQKPGQPPKLLIKFASNLESGVPDRFSGSGSGTDFTLTISSLQAEDTAVYYCQHSWEIPYTFGQGTKLEIKR
Result: 9.97

Ask: Please look up its mCrhr1 Luciferase Reporter Assay IC50: PR302069 (antibody, human IgG1, kappa, V domains shown, humanized variant of PR301777) VH: EMQLVESGGGLVKPGGSLRLSCAASGFTFSNYWMNWVRQAPGKGLEWVAEIRLKSNNYATHYAESVKGRFTISRDDSKSTVYLQMNSLKTEDTAVYYCTVGTLVYWGQGTLVTVSS VL: DIQLTQSPSSLSASVGDRVTITCRASQSVSTSTYNYMHWFQQKPGKAPKLLIKFASNLESGVPSRFSGSGSGTDFTLTISSLQPEDTATYYCQHSWEIPYTFGQGTKLEIKR
Result: 4.4

Ask: Please look up its mCrhr1 Luciferase Reporter Assay IC50: PR301777 (antibody, human IgG1, kappa, V domains shown, Series 5; mouse variable domains, human IgG1 wildtype Fc) VH: EMKLEESGGGLVQPGGSMKLSCVASGFTFSNYWMNWVRQSPEKGLEWVAEIRLKSNNYATHYAESVKGRFTISRDDSKSGVYLQMNNLGAEDTGIYYCTVGTLVYWGQGTLVTVSA VL: DIVLTQSPASLAVSLGQRATISCRASQSVSTSTYNYMHWFQQKPGQPPKLLIKFASNLESGVPARFSGSGSGTDFTLNIHPVEEEDTATFYCQHSWEIPYTFGGGTKLEIKR
Result: 2.42

Ask: Please look up its mCrhr1 Luciferase Reporter Assay IC50: PR302041 (antibody, human IgG1, kappa, V domains shown, humanized variant of PR301777) VH: EMQLVESGGGLVQPGGSLRLSCAASGFTFSNYWMNWVRQAPGKGLEWVAEIRLKSNNYATHYAESVKGRFTISRDDSKSSVYLQMNSLKTEDTAVYYCTVGTLVYWGQGTLVTVSS VL: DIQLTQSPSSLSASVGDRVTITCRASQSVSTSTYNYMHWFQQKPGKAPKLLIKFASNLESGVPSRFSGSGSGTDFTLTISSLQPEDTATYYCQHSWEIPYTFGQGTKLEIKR
Result: 7.17

Ask: Please look up its mCrhr1 Luciferase Reporter Assay IC50: PR302029 (antibody, human IgG1, kappa, V domains shown, humanized variant of PR301777) VH: EVQLVESGGGLVQPGGSLRLSCAASGFTFSNYWMNWVRQAPGKGLEWVGEIRLKSNNYATHYAESVKGRFTISRDDSKNSLYLQMNSLKTEDTAVYYCTVGTLVYWGQGTLVTVSS VL: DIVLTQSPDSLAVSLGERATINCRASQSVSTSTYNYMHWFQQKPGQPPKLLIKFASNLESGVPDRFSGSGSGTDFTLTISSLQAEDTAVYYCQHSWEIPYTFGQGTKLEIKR
Result: 13.9

Ask: Please look up its mCrhr1 Luciferase Reporter Assay IC50: PR302036 (antibody, human IgG1, kappa, V domains shown, humanized variant of PR301777) VH: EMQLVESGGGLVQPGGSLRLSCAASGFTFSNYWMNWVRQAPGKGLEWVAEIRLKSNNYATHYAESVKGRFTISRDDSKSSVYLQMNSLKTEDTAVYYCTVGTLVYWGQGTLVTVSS VL: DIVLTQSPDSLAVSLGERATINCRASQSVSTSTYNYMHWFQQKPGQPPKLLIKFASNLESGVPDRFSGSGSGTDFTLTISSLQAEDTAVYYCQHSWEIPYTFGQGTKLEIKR
Result: 3.03

Ask: Please look up its mCrhr1 Luciferase Reporter Assay IC50: PR302052 (antibody, human IgG1, kappa, V domains shown, humanized variant of PR301777) VH: EMQLVESGGGLVQPGGSLKLSCAASGFTFSNYWMNWVRQASGKGLEWVAEIRLKSNNYATHYAESVKGRFTISRDDSKSTVYLQMNSLKTEDTAVYYCTVGTLVYWGQGTLVTVSS VL: EIVLTQSPATLSLSPGERATLSCRASQSVSTSTYNYMHWFQQKPGQAPRLLIKFASNLESGIPARFSGSGSGTDFTLTISSLEPEDTAVYYCQHSWEIPYTFGQGTKLEIKR
Result: 7.32

Ask: Please look up its mCrhr1 Luciferase Reporter Assay IC50: PR302034 (antibody, human IgG1, kappa, V domains shown, humanized variant of PR301777) VH: EVQLVESGGGLVQPGGSLRLSCAASGFTFSNYWMNWVRQAPGKGLEWVGEIRLKSNNYATHYAESVKGRFTISRDDSKNSLYLQMNSLKTEDTAVYYCTVGTLVYWGQGTLVTVSS VL: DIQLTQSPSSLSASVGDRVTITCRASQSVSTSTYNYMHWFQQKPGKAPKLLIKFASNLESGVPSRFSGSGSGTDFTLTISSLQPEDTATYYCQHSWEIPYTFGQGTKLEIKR
Result: 204

Ask: Please look up its mCrhr1 Luciferase Reporter Assay IC50: PR302066 (antibody, human IgG1, kappa, V domains shown, humanized variant of PR301777) VH: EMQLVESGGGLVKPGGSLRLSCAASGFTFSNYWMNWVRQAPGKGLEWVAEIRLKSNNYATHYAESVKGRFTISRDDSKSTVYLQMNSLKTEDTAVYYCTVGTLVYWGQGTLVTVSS VL: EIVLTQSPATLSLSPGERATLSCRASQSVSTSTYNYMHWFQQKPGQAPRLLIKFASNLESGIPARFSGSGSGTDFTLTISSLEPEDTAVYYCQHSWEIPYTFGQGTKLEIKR
Result: 11.5
